Tested on: Plasmodium falciparum
Assay: GSK_TCMDC: Inhibition of Plasmodium falciparum 3D7 in whole erythrocytes, using parasite LDH activity as an index of growth.
Format: functional, organism-based
Details: Plasmodium falciparum, 3D7
MEASURED METRIC: log10 XC50 (log10 of the value in nM)
All values: base-10 log of XC50 in nM.

Record excerpt, results attached:
{"columns": ["MOLECULE", "OBSERVED VALUE"],
 "data": [
  ["Cc1ccc(NC(=O)Nc2ccccc2)cc1-c1ccc(C(=O)Nc2ccncc2)cc1", 2.38],
  ["COc1cc2nc(N(C)C)nc(Nc3ccc(OCc4ccccc4)cc3)c2cc1OC", 1.86],
  ["CCSc1ccccc1CON1C(=N)N=C(N)NC1(C)C", 0.51]
]}

Task: May I ask what log10 XC50 has been recorded for O=C(NCCCCCCNCc1ccc(-c2ccccc2)cc1)Nc1ccc(Cl)c(Cl)c1 ?
Output: 2.98

Task: Reported log10 XC50 for COc1cccc(Nc2nccc(NCC(O)c3ccc(C(F)(F)F)cc3)n2)c1 (stereo not given) : what is it?
Output: 2.82

====

System: Plasmodium falciparum
Assay: GSK_TCMDC: Inhibition of Plasmodium falciparum 3D7 in whole erythrocytes, using parasite LDH activity as an index of growth.
Type: functional, organism-based
Details: Plasmodium falciparum, 3D7
Consider the following compounds and their measured XC50 readings.
Note: unit nM is implicit; provide only the numeric part.

Recorded results for 8 compounds are shown here.
{"columns": ["COMPOUND", "SYSTEM TESTED", "XC50 / nM"],
 "data": [
  ["CCN1CCC(N(Cc2ccc(-c3ccc(C(F)(F)F)cc3)cc2)C(=O)Cn2c(SCc3ccc(F)cc3)nc(=O)c3c2CCC3)CC1", "Plasmodium falciparum", 991],
  ["Clc1ccc(-c2cc(-c3csc(Nc4ccncc4)n3)on2)cc1", "Plasmodium falciparum", 133],
  ["CN1CCN(c2nsc3ccc(-c4ccc(NC(=O)Nc5ccccc5)cc4)cc23)CC1", "Plasmodium falciparum", 180],
  ["Cc1cccc2nc(-c3ccc(-c4ccc(CNCc5ccc(CN)cc5)cc4)s3)[nH]c12", "Plasmodium falciparum", 442],
  ["CCN(CCCN1CCCC1)c1cc(C)nc(Nc2ccc(Cl)cc2)n1", "Plasmodium falciparum", 344],
  ["Cc1noc(C)c1-c1cccc(CNCc2ccc(-c3ccc(-c4nc5cc(C(F)(F)F)ccc5[nH]4)s3)cc2)c1", "Plasmodium falciparum", 181],
  ["COc1cccc(-c2csc(C(=O)NCC3CCN(Cc4ccc(C(C)C)cc4)C3)c2)c1 (centres undefined)", "Plasmodium falciparum", 1390],
  ["CCCOc1ccc2ccccc2c1CNCCCCCCNCc1c(OCCC)ccc2ccccc12", "Plasmodium falciparum", 791]
]}

Proceeding to the next compound to report its XC50.
Task: Would you kindly share the measured XC50 for CN1CCC(NCc2ccc(-c3cccc(S(=O)(=O)NCC4CCCO4)c3)cc2)CC1 (centres undefined) ?
Output: 939

====

System: Plasmodium falciparum
Assay: GSK_TCMDC: Inhibition of Plasmodium falciparum 3D7 in whole erythrocytes, using parasite LDH activity as an index of growth.
Assay type: functional, organism-based
Details: Plasmodium falciparum, 3D7
Would you mind classing the entries by XC50? Ranges: I = under 600 nM, II = from 600 nM up to 800 nM, III = 800 nM and over

Worked examples, 5 compounds total:
{"columns": ["COMPOUND", "CATEGORY LABEL"],
 "data": [
  ["CCCc1cc(OC)c(CC2c3cc(O)c(Cl)cc3CCN2C)cc1OC (centres undefined)", "I"],
  ["O=C(Cc1ccccc1)NC(CCN1CCC(O)(c2cccc(C(F)(F)F)c2)CC1)c1ccc(Cl)c(Cl)c1 (centres undefined)", "III"],
  ["CN(C)S(=O)(=O)c1ccc(N2CCN(CCC3(c4cccc(F)c4)CCN(C(=O)C(C)(C)C)CC3)CC2)c2nonc12", "II"],
  ["COCCNCc1ccc(-c2cccc(CN(C(=O)NCCc3ccccc3)C3CCN(Cc4ccccc4)CC3)c2)cc1", "III"],
  ["CN1CCN(CCCN(Cc2ccc(-c3ccc(CNCc4ccc5c(c4)OCO5)cc3)cc2)C(=O)Nc2ccccc2)CC1", "II"]
]}

Please look at the following compound next.
Task: Class (by measured XC50) for CC[C@H]1CN2CC[C@H]1C[C@H]2[C@H](O)c1cc(-c2ccccc2F)nc2ccc(OC)cc12
Output: I
